All values here come from ChEMBL document CHEMBL1156733.

In what follows, each item is paired with its pKi for Melanocortin receptor 4 (Homo sapiens, UniProt P32245).
pKi: −log10 of the molar value.
measuredProperty: pKi

{"compound": "CC(C)CC(=O)c1ccccc1N1CCN(C(=O)[C@@H](Cc2ccc(Cl)cc2Cl)NCC2CCOC2)CC1 (stereo partly drawn)", "measuredProperty": "pKi", "measuredNumber": 6.82}
{"compound": "CC(C)CC(O)c1ccccc1N1CCN(C(=O)[C@@H](Cc2ccc(Cl)cc2Cl)N(Cc2ccccn2)Cc2ccccn2)CC1 (stereo partly drawn)", "measuredProperty": "pKi", "measuredNumber": 7.08}
{"compound": "CCC(O)(CC)c1ccccc1N1CCN(C(=O)[C@@H](Cc2ccc(Cl)cc2Cl)NC(=O)CN(C)C)CC1", "measuredProperty": "pKi", "measuredNumber": 8.03}
{"compound": "CCCCN(CCCC)[C@H](Cc1ccc(Cl)cc1Cl)C(=O)N1CCN(c2ccccc2C(N)CC(C)C)CC1 (stereo partly drawn)", "measuredProperty": "pKi", "measuredNumber": 6.92}
{"compound": "CC(C)C[C@H](O)c1ccccc1N1CCN(C(=O)[C@@H](Cc2ccc(Cl)cc2Cl)NC(=O)CN)CC1", "measuredProperty": "pKi", "measuredNumber": 7.55}
{"compound": "CNCC(=O)N[C@H](Cc1ccc(Cl)cc1Cl)C(=O)N1CCN(c2ccccc2C(N)CC(C)C)CC1 (stereo partly drawn)", "measuredProperty": "pKi", "measuredNumber": 8.77}
{"compound": "CNC(C)(C)C(=O)N[C@H](Cc1ccc(Cl)cc1Cl)C(=O)N1CCN(c2ccccc2C(N)CC(C)C)CC1 (stereo partly drawn)", "measuredProperty": "pKi", "measuredNumber": 8.33}
{"compound": "CC(C)CC(N)c1ccccc1N1CCN(C(=O)[C@@H](Cc2ccc(Cl)cc2Cl)NC(=O)CCN)CC1 (stereo partly drawn)", "measuredProperty": "pKi", "measuredNumber": 8.49}

====

experiment: Metabolic stability assessed as intrinsic clearance in human liver microsomes
Type: ADME, Microsome
measuredProperty: CLint scaled (mL/min/kg)

{"compound": "CC(C)CC(N)c1ccccc1N1CCN(C(=O)[C@@H](Cc2ccc(Cl)cc2Cl)NC(=O)CCN)CC1 (stereo partly drawn)", "outputUnit": "mL/min/kg", "measuredNumber": 3.6}
{"compound": "CC(C)CC(O)c1ccccc1N1CCN(C(=O)[C@@H](Cc2ccc(Cl)cc2Cl)NC(=O)CCN)CC1 (stereo partly drawn)", "outputUnit": "mL/min/kg", "measuredNumber": 14.7}
{"compound": "CC(C)CC(=O)c1ccccc1N1CCN(C(=O)[C@@H](Cc2ccc(Cl)cc2Cl)NC(=O)CCN)CC1", "outputUnit": "mL/min/kg", "measuredNumber": 18.4}

====

Test system: Melanocortin receptor 1 (Homo sapiens)
experiment: Inhibition of human MC1 receptor at 10 uM
inhibition overview

{"molecule": "CNCC(=O)N[C@H](Cc1ccc(Cl)cc1Cl)C(=O)N1CCN(c2ccccc2C(O)CC(C)C)CC1 (some centres undefined)", "inhibition / %": 34}
{"molecule": "CC(C)CC(=O)c1ccccc1N1CCN(C(=O)[C@@H](Cc2ccc(Cl)cc2Cl)NC(=O)CCN)CC1", "inhibition / %": 42}
{"molecule": "CCC(O)(CC)c1ccccc1N1CCN(C(=O)[C@@H](Cc2ccc(Cl)cc2Cl)NC(=O)CN(C)C)CC1", "inhibition / %": 34}
{"molecule": "CC(C)CC(O)c1ccccc1N1CCN(C(=O)[C@@H](Cc2ccc(Cl)cc2Cl)NC(=O)CN(C)C)CC1 (some centres undefined)", "inhibition / %": 36}

====

In what follows, each item is paired with its pKi for UniProt P41968.
Sequence (P41968 whole entry): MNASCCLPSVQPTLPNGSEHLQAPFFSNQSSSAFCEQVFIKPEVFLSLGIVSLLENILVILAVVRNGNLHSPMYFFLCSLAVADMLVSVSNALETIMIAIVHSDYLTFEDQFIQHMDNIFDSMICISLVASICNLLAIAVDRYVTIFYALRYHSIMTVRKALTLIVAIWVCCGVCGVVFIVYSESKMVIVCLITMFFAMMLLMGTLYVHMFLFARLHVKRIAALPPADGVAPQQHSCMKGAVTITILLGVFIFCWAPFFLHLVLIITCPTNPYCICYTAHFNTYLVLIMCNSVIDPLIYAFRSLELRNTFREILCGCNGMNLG
pKi: −log10 of the molar value.
measuredProperty: pKi

{"compound": "CC(C)CC(N)c1ccccc1N1CCN(C(=O)[C@@H](Cc2ccc(Cl)cc2Cl)NC(=O)CCN)CC1 (some centres not stated)", "measuredNumber": 6.06}
{"compound": "CC(C)CC(=O)c1ccccc1N1CCN(C(=O)[C@@H](Cc2ccc(Cl)cc2Cl)NC(=O)CCN)CC1", "measuredNumber": 5.64}

====

assayTarget: UniProt:P32245
experiment: Antagonist activity at human MC4 receptor expressed in cells assessed as inhibition of alpha-MSH-stimulated cAMP production
Decision: IC50 beneath 400 nM gives True; IC50 meeting or exceeding 400 nM gives False.

{"compound": "CNCC(=O)N[C@H](Cc1ccc(Cl)cc1Cl)C(=O)N1CCN(c2ccccc2C(O)CC(C)C)CC1 (stereo partly specified)", "answerLabel": "False"}
{"compound": "CC(C)CC(O)c1ccccc1N1CCN(C(=O)[C@@H](Cc2ccc(Cl)cc2Cl)NC(=O)CN(C)C)CC1 (stereo partly specified)", "answerLabel": "True"}
{"compound": "CC(C)CC(O)c1ccccc1N1CCN(C(=O)[C@@H](Cc2ccc(Cl)cc2Cl)NC(=O)CCN)CC1 (stereo partly specified)", "answerLabel": "True"}
{"compound": "CC(C)CC(=O)c1ccccc1N1CCN(C(=O)[C@@H](Cc2ccc(Cl)cc2Cl)NC(=O)CCN)CC1", "answerLabel": "False"}
{"compound": "CC(C)CC(N)c1ccccc1N1CCN(C(=O)[C@@H](Cc2ccc(Cl)cc2Cl)NC(=O)CCN)CC1 (stereo partly specified)", "answerLabel": "True"}

====

experiment: Half life in rat at 5 mg/kg, iv
Type: ADME, organism-based
Parameters: dose 5 mg/kg, route intravenous
runConditions: in vivo
half-life overview
measuredProperty: half-life (h)

{"compound": "CC(C)CC(N)c1ccccc1N1CCN(C(=O)[C@@H](Cc2ccc(Cl)cc2Cl)NC(=O)CCN)CC1 (some centres not stated)", "outputUnit": "h", "measuredNumber": 7.1}
{"compound": "CC(C)CC(O)c1ccccc1N1CCN(C(=O)[C@@H](Cc2ccc(Cl)cc2Cl)NC(=O)CCN)CC1 (some centres not stated)", "outputUnit": "h", "measuredNumber": 7.6}

====

experiment: Ratio of drug level in brain to plasma in rat at 5 mg/kg, iv after 1 hr
Assay type: ADME, organism-based
Design: dose 5 mg/kg, route intravenous
Kp at 1 h overview

{"compound": "CC(C)CC(N)c1ccccc1N1CCN(C(=O)[C@@H](Cc2ccc(Cl)cc2Cl)NC(=O)CCN)CC1 (some centres not stated)", "Kp at 1 h": 1.8}
{"compound": "CC(C)CC(O)c1ccccc1N1CCN(C(=O)[C@@H](Cc2ccc(Cl)cc2Cl)NC(=O)CCN)CC1 (some centres not stated)", "Kp at 1 h": 0.53}

====

experiment: Oral bioavailability in rat at 10 mg/kg
Type: ADME, organism-based
runConditions: in vivo
bioavailability overview

{"compound": "CC(C)CC(O)c1ccccc1N1CCN(C(=O)[C@@H](Cc2ccc(Cl)cc2Cl)NC(=O)CCN)CC1 (some centres not stated)", "bioavailability": "1.2%"}
{"compound": "CC(C)CC(N)c1ccccc1N1CCN(C(=O)[C@@H](Cc2ccc(Cl)cc2Cl)NC(=O)CCN)CC1 (some centres not stated)", "bioavailability": "2.1%"}

====

Ki overview
assayTarget: Melanocortin receptor 4 (Homo sapiens, UniProt P32245)
Sequence (P32245 whole entry): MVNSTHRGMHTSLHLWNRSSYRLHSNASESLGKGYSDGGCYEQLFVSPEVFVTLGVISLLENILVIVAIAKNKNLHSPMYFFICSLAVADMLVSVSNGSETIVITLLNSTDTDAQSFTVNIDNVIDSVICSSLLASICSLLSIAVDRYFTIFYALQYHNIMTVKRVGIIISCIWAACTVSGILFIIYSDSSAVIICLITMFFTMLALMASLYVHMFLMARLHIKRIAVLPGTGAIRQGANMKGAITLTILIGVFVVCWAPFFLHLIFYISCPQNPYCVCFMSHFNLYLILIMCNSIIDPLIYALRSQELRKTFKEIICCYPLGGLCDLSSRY
measuredProperty: Ki (nM)

{"compound": "CC(C)CC(=O)c1ccccc1N1CCN(C(=O)[C@@H](Cc2ccc(Cl)cc2Cl)NC(=O)CN)CC1", "measuredProperty": "Ki", "outputUnit": "nM", "resultModifier": "=", "measuredNumber": 33}
{"compound": "CC(C)CC(=O)c1ccccc1N1CCN(C(=O)[C@@H](Cc2ccc(Cl)cc2Cl)NC(C)C)CC1", "measuredProperty": "Ki", "outputUnit": "nM", "resultModifier": "=", "measuredNumber": 560}
{"compound": "CCC(O)(CC)c1ccccc1N1CCN(C(=O)[C@@H](Cc2ccc(Cl)cc2Cl)NC(=O)[C@H](C)N)CC1", "measuredProperty": "Ki", "outputUnit": "nM", "resultModifier": "=", "measuredNumber": 18}
{"compound": "CC(C)CC(O)c1ccccc1N1CCN(C(=O)[C@@H](Cc2ccc(Cl)cc2Cl)NC(C)C)CC1 (some centres not stated)", "measuredProperty": "Ki", "outputUnit": "nM", "resultModifier": "=", "measuredNumber": 380}
{"compound": "CC(C)CC(=O)c1ccccc1N1CCN(C(=O)[C@@H](Cc2ccc(Cl)cc2Cl)N(CC(C)C)CC(C)C)CC1", "measuredProperty": "Ki", "outputUnit": "nM", "resultModifier": ">", "measuredNumber": 10000}
{"compound": "CNC(C)(C)C(=O)N[C@H](Cc1ccc(Cl)cc1Cl)C(=O)N1CCN(c2ccccc2C(O)CC(C)C)CC1 (some centres not stated)", "measuredProperty": "Ki", "outputUnit": "nM", "resultModifier": "=", "measuredNumber": 21}
{"compound": "CC(C)CC(N)c1ccccc1N1CCN(C(=O)[C@@H](Cc2ccc(Cl)cc2Cl)NCC2CCOC2)CC1 (some centres not stated)", "measuredProperty": "Ki", "outputUnit": "nM", "resultModifier": "=", "measuredNumber": 15}
{"compound": "CCC(O)(CC)c1ccccc1N1CCN(C(=O)[C@@H](Cc2ccc(Cl)cc2Cl)NC(=O)OC(C)(C)C)CC1", "measuredProperty": "Ki", "outputUnit": "nM", "resultModifier": "=", "measuredNumber": 390}
{"compound": "CNCC(=O)N[C@H](Cc1ccc(Cl)cc1Cl)C(=O)N1CCN(c2ccccc2C(=O)CC(C)C)CC1", "measuredProperty": "Ki", "outputUnit": "nM", "resultModifier": "=", "measuredNumber": 31}
{"compound": "CC(C)CC(O)c1ccccc1N1CCN(C(=O)[C@@H](Cc2ccc(Cl)cc2Cl)NC(=O)CN(C)C)CC1 (some centres not stated)", "measuredProperty": "Ki", "outputUnit": "nM", "resultModifier": "=", "measuredNumber": 9.6}
{"compound": "COc1ccccc1CC(O)c1ccccc1N1CCN(C(=O)[C@@H](Cc2ccc(Cl)cc2Cl)NC(=O)CCN)CC1 (some centres not stated)", "measuredProperty": "Ki", "outputUnit": "nM", "resultModifier": "=", "measuredNumber": 66}
{"compound": "CCCC(O)c1ccccc1N1CCN(C(=O)[C@@H](Cc2ccc(Cl)cc2Cl)NC(=O)CCN)CC1 (some centres not stated)", "measuredProperty": "Ki", "outputUnit": "nM", "resultModifier": "=", "measuredNumber": 26}
{"compound": "CC(C)CC(N)c1ccccc1N1CCN(C(=O)[C@@H](Cc2ccc(Cl)cc2Cl)N(CC(C)C)CC(C)C)CC1 (some centres not stated)", "measuredProperty": "Ki", "outputUnit": "nM", "resultModifier": "=", "measuredNumber": 1200}
{"compound": "COc1ccc(CCC(O)c2ccccc2N2CCN(C(=O)[C@@H](Cc3ccc(Cl)cc3Cl)NC(=O)CCN)CC2)cc1 (some centres not stated)", "measuredProperty": "Ki", "outputUnit": "nM", "resultModifier": "=", "measuredNumber": 23}
{"compound": "CNC(C)(C)C(=O)N[C@H](Cc1ccc(Cl)cc1Cl)C(=O)N1CCN(c2ccccc2C(=O)CC(C)C)CC1", "measuredProperty": "Ki", "outputUnit": "nM", "resultModifier": "=", "measuredNumber": 91}
{"compound": "CCOC(=O)[C@H]1CCCC[C@@H]1N1CCN(C(=O)[C@@H](Cc2ccc(Cl)cc2Cl)NC(=O)CCN)CC1", "measuredProperty": "Ki", "outputUnit": "nM", "resultModifier": "=", "measuredNumber": 6.3}
{"compound": "CCC(O)(CC)c1ccccc1N1CCN(C(=O)[C@@H](Cc2ccc(Cl)cc2Cl)NC(=O)CCN)CC1", "measuredProperty": "Ki", "outputUnit": "nM", "resultModifier": "=", "measuredNumber": 11}
